Hello, the source for this data is the supplement of paper PMC10567573, in case you need it.

B1: PTPRD (parent)
chain: LTKLREMGREKCHQYWPAERSARY

Variants of: B1
Experiment: protein stability index of a GFP-peptide fusion (GPS, HEK-293T) (PSI 1-6); higher = more stable;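 further: lentivirally expressed fusions sorted by FACS into six bins by GFP to DsRed ratio, PSI derived from sequencing read proportions per bin multiplied by bin number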
Conditions: c terminus: a fixed tail appended
Examples of variants with documented protein stability index follow.

variant-spec | protein stability index
L1C | 2.42
S21C | 1.7
A18W | 2.16
G8D | 3.22
C12L | 2.39
Y15C | 2.6
R5L | 2.4
A18H | 2.19
P17M | 1.97
T2D | 2.83
T2Q | 2.95
